System: HCC-2998 colon
Assay: NCI-60 one-dose screen, 48 h (100 = growth as untreated, 0 = no growth, -100 = all killed)
Conditions: 10 µM unless noted
Compounds without any hit were thinned out: in the full panel of roughly 83,000, 20% have a hit. Active and inactive are the calls of the source. How the source made its calls: active means growth percent below 10; inactive means the rest.
Give measured growth for each item. Keep answers brief.

Worked examples follow.
>>> assay_value("O=C1CC[C@H](c2ccc(O)c3c2C(=O)[C@@H]2O[C@@H]2C3=O)c2cccc(O)c21")
"101% (inactive)"
>>> assay_value("COc1cc2nc(N3CCCC3)nc(NCC3CCCCC3)c2cc1OC")
"-60.1% (active)"
>>> assay_value("CCC([N+](=O)[O-])S(=O)(=O)c1ccc(C)cc1 (stereo not drawn)")
"64.5% (inactive)"
>>> assay_value("Nc1nc2ncc(CCNc3ccc(C(=O)O)cc3)nc2c(=O)[nH]1")
"117% (inactive)"
>>> assay_value("CN1CCN(CCCOc2cccc3nc(Nc4cc(Cl)cc(Cl)c4)ccc23)CC1")
"30.2% (inactive)"
>>> assay_value("COc1ccc(C2CC(c3ccc(Cl)cc3)=NN2/C=C2\\SC(=S)N(NC(=O)Cc3ccccc3Nc3c(Cl)cccc3Cl)C2=O)cc1 (stereo not drawn)")
"90.4% (inactive)"
>>> assay_value("O=C1CC(=NCC(=O)n2c(-c3ccccc3)nc3ccccc32)NN1")
"109% (inactive)"
>>> assay_value("OCc1ccc(N2CCc3cccc(F)c3C2)cc1Cl")
"81% [0.1 µM] (inactive)"
>>> assay_value("CCOC(=O)n1cc(-c2nonc2-c2cn(C)c3ncccc23)c2ccccc21")
"89.6% (inactive)"
>>> assay_value("CCN(CC)S(=O)(=O)c1ccc(OC)c(NC(=O)c2[nH]c(C)c3c2CCCCC3=O)c1")
"42.3% (inactive)"

For every item below, please supply its growth.
1. Cc1cc2c3ccccc3ccc2[n+]2ccccc12
2. COc1cc2nnc3c4cccnc4[nH]c3c2cc1OC
3. Cc1ncc(C(=O)Nc2ccc(CN3CCN(C)CC3)c(C(F)(F)F)c2)cc1C#Cc1cnc2cccnn12

1: 47% (inactive); 2: 88% (inactive); 3: 11.1% (inactive)

Batch: growth for all items listed.
1. COc1ccc(/C=C/c2nc(-c3n[nH]c(=O)n3-c3ccccc3)c3ccccc3n2)cc1
2. O=C(CCl)Oc1ccc(-c2ccccc2)c(Br)c1

112% (inactive)
109% (inactive)

The following molecules each have a reported value; give each one's growth.
1. Cc1cc(NS(=O)(=O)c2ccc(-c3cnc(C4CC4)o3)cc2)ccc1Cl
2. CCCCN(CCCC)CCCn1c(-c2ccccc2)ccc1-c1ccccc1
3. COc1ccc(Nc2cc(C)nc(N3CCN(c4ccnc5cc(Cl)ccc45)CC3)n2)cc1

25.1% (inactive)
59.9% (inactive)
41.2% (inactive)

---

Tested on: HOP-92 NSCLC
Test: NCI-60 one-dose screen, 48 h
Details: 10 µM unless noted
About 83,000 compounds went through this panel and 20% of them were active in at least one assay; those are over-represented in the sample as a whole. Activity calls are given as the source filed them. How the source made its calls: active means growth percent below 10; inactive means the rest.
Can you answer with just one of these options? active, inactive

>>> assigned_category("CCn1c(Cc2ccccc2Nc2c(Cl)cccc2Cl)nnc1SCC(=O)NN1C(=O)/C(=C/c2cc(OC)c(O)c(OC)c2)SC1=S")
"inactive"
>>> assigned_category("COc1ccc(-c2cc(-c3ccc(Nc4ccnc5cc(Cl)ccc45)cc3)nc(N3CCOCC3)n2)cc1")
"inactive"
>>> assigned_category("Cc1cc(C)nc(SC2=C(Nc3cccc(Cl)c3)C(=O)N(Cc3ccccc3)C2=O)n1")
"active"
>>> assigned_category("CC1=C(O)C(=O)C(C(C#N)(C#N)C(C#N)C#N)C1 (stereo not given)")
"inactive"
>>> assigned_category("Cc1ccc(/C=C2\\SC(=S)N(CC(=O)NCCCN3CCOCC3)C2=O)cc1")
"inactive"
>>> assigned_category("COc1ccc(CN2c3ccccc3Sc3ccccc32)c(C(F)(F)F)c1")
"inactive"
>>> assigned_category("Cc1cc(N2CCCCCC2)nc(NC2CCCC(Nc3ccnc4cc(Cl)ccc34)C2)n1 (stereo not given)")
"active"
>>> assigned_category("Cc1cc(C)c2nc3nc(C)cc(C)c3c(N)c2c1")
"active"
>>> assigned_category("CCOC(=O)n1cc(-c2nonc2-c2cn(C)c3ncccc23)c2ccccc21")
"inactive"
>>> assigned_category("O=c1oc2c(C(F)(F)F)cccc2cc1-c1csc(Nc2ccc(OCCF)cc2)n1")
"inactive"

Hey, what did the test say about `O=C(COc1ccc(/C=C2\CSc3ccccc3C2=O)cc1)Nc1nccs1` ?
inactive

// next record `CSc1ccc(-c2ccccc(=O)c2O)cc1`
inactive

// repeat for CCOC(=O)C(C)(C#N)C1C=CCCC1 (stereo not given) and report
inactive

# repeat for `O=C(Cc1ccc(/C=C/C(=O)c2ncc[nH]2)cc1)Nc1ccc(F)cc1`
inactive

Next: `COC(=O)c1ccc(NC(=O)c2ccc(-c3cccc([N+](=O)[O-])c3)o2)cc1`
inactive

---

Would you mind telling me the reported growth of each entry?
Test system: SN12C renal
Test: NCI-60 one-dose screen, 48 h (100 = growth as untreated, 0 = no growth, -100 = all killed)
Details: 10 µM unless noted
About 83,000 compounds went through this panel and 20% of them were active in at least one assay; those are over-represented in the sample as a whole. The source made the active and inactive calls. How the source made its calls: active means growth percent below 10; inactive means the rest.

// solved cases for growth follow
>>> assay_value("C=CC(=O)Nc1cccc(-c2nc(SC)nc(Nc3cccc(OC)c3)c2C#N)c1")
"44.6% (inactive)"
>>> assay_value("COc1ccc(/C=C/c2nc(-c3n[nH]c(=O)n3-c3ccccc3)c3ccccc3n2)cc1")
"91.5% (inactive)"
>>> assay_value("FC(F)(F)c1nc2c(NCc3ccc(-c4ccccc4)cc3)cccc2[nH]1")
"88.4% (inactive)"
>>> assay_value("C#Cc1cccc(NC(=O)c2ccccc2NC(=O)C=C)c1")
"94% [8.25 µM] (inactive)"
>>> assay_value("COc1ccc(C(=O)c2sc3nc4c(c(-c5cccnc5)c3c2N)CCCC4)cc1OC")
"69.8% (inactive)"
>>> assay_value("Cc1ccc(NS(=O)(=O)c2ccc(-c3cnc(C4CC4)o3)cc2)cc1C")
"43.6% (inactive)"

May I ask what growth has been recorded for `Cc1cc(N2CCN(c3ccnc4cc(Cl)ccc34)CC2)nc(NC2CCCCC2)n1` ?
47.2% (inactive)

---

System: SF-268 CNS
Assay: NCI-60 one-dose screen, 48 h (100 = growth as untreated, 0 = no growth, -100 = all killed)
Details: 10 µM unless noted
About 83,000 compounds went through this panel and 20% of them were active in at least one assay; those are over-represented in the sample as a whole.
Attribute Measured: growth (%)
Answers are plain numbers, in %.

Take a look at these entries with their results.
>>> assay_value("CCCCCCN(CCCCCC)CCC(O)c1ccc2ccccc2c1 (stereo not given)")
73.3
>>> assay_value("O=C1NC(=Nc2ccc(O)cc2)S/C1=C\\c1cccc(Cl)c1")
74.1
>>> assay_value("N#CN1CCC[C@H]1C(=O)N1CCc2c(-c3[nH]nc4ncccc34)cccc21")
7.17
>>> assay_value("CSc1ccc(-c2ccccc(=O)c2O)cc1")
11.5

# evaluate next
Which measured growth belongs to `Cc1cc(N2CCOCC2)nc(N[C@@H]2CCC[C@H](Nc3ccnc4cc(Cl)ccc34)C2)n1` , tested on SF-268 CNS?
19.1

---

Test system: SNB-75 CNS
Test: NCI-60 one-dose screen, 48 h (100 = growth as untreated, 0 = no growth, -100 = all killed)
Conditions: 10 µM unless noted
This is part of a sample that, as a whole, favours compounds with a hit. Of some 83,000 tested, about 20% had one in any assay.
just bin them by growth: class 1 = under 30%, class 2 = from 30% up to 60%, class 3 = 60% and over

Example entries begin here.
>>> assigned_category("N#Cc1c(-c2ccc(Cl)cc2)nc(N/N=C/c2cccc(Br)c2)nc1N1CCOCC1")
"class 3"
>>> assigned_category("FC(F)(F)c1ccc(-c2cn3nc(-c4c[nH]c5ccc(Br)cc45)sc3n2)cc1")
"class 3"
>>> assigned_category("CCN1CCN(c2nc(NCCCNc3ccnc4cc(Cl)ccc34)c3ccccc3n2)CC1")
"class 2"
>>> assigned_category("COc1ccc(S(=O)(=O)N2CC3(COC3)C2)cc1NC(=O)c1[nH]c(C)c2c1CCCCC2=O")
"class 1"
>>> assigned_category("COc1cc2nc(N3CCCC3)nc(Nc3ccccc3)c2cc1OC")
"class 3"
>>> assigned_category("Oc1cccc2ccc(N/N=C/c3cc(CN4CCOCC4)c(O)c4ncccc34)nc12")
"class 2"
>>> assigned_category("COc1cc(-c2nn(-c3ccc(C)cc3)cc2C(=O)O)ccc1O")
"class 3"
>>> assigned_category("COc1ccc(SC2c3ccc(C)cc3Oc3nc(N)c(C#N)c(N)c32)cc1 (stereo unspecified)")
"class 1"

# bin label for Cc1cc(N2CCN(C)CC2)nc(NC2CCCC(Nc3ccnc4cc(Cl)ccc34)C2)n1 (stereo unspecified)
class 1

Can you check `O=S(=O)(Nc1ccc(OC(F)F)cc1)c1ccc(-c2cnc(C3CC3)o2)cc1` next?
class 2

Also, `CC1=C[C@H]2c3c(c(O)c(O)c4oc5c(C)cccc5c(=O)c34)[C@H](c3cc(O)c(O)c4oc5c(C)cccc5c(=O)c34)[C@H]2C(C)(C)C1` please.
class 1

Next compound up: `COc1ccc2c(c1)C(=O)/C(=C/c1ccccn1)CC2`
class 3

Thanks! And `COC[C@H](C)n1c(C2CCOCC2)nc2cnc3cc(-c4c(C)noc4C)c(OC)cc3c21` ?
class 2

Again, but for `Cc1nn(-c2ccc(F)cc2)c2ncnc(Oc3ccc(NC(=O)Nc4ccc(Cl)c(C(F)(F)F)c4)cc3)c12`
class 3

Quick one: `COc1ccc(CN2c3ccccc3Oc3ccccc32)cc1O`
class 1

Please answer likewise for `COc1cc(CNc2oc(-c3ccccc3)c(-c3ccccc3)c2C#N)cc(CN2CCN(C)CC2)c1O`
class 2

Input `C=CC(=O)Nc1cccc(-c2nc(SC)nc(NCCc3ccc(OC)c(OC)c3)c2C#N)c1`
class 2

Repeat with Cc1cc(N2CCCCC2)nc(NC2CCCC(Nc3ccnc4cc(Cl)ccc34)C2)n1 (stereo unspecified)
class 1

Let us now turn to `COc1ccc(-c2cc(C(=O)N=Nc3c(O)[nH]c4ccc(Br)cc34)no2)cc1`
class 3

Then what about the compound `COc1ccc(-n2nc(C)c3c(Nc4ccc(NC(=O)Nc5c(Cl)cccc5Cl)cc4)ncnc32)cc1` ?
class 2

Queued: `O=C(COc1cccc(/C=C2\COc3ccc(Cl)cc3C2=O)c1)c1ccc(Cl)cc1`
class 3

Field entry: `CC(=O)c1nc2ccccc2n1CC(=O)c1cccc(Cl)c1`
class 1

Please give the result for O=C1/C(=C/N2N=C(c3ccc4ccccc4c3)CC2c2ccccc2O)SC(=S)N1c1cccnc1 (stereo unspecified) too.
class 1

The measurements presented in this section are drawn from PubChem BioAssay (NCI).
